Reference source: patent US20240317858A1

Molecular target: T1, Cynomolgus CD3εδ Fc heterodimer (Cy CD3ε Fc + CD3δ Fc-HIS) (cynomolgus, UniProt Q95LI5 22-117; Q95LI8 22-100)
T1 construct: range 22-117;range 22-100; Made in HEK 293 cells with a heterologous signal peptide; also called Cy CD3εδ-Fc; cyno CD3εδ Fc; not shown: Fc; Fc followed by HIS tag
T1 sequence (Q95LI5 22-117, stated change not applied, form in doubt, chain 1 of 2): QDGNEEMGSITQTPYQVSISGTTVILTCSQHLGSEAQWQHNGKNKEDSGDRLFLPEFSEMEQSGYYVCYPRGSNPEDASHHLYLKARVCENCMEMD
T1 sequence (Q95LI8 22-100, stated change not applied, form in doubt, chain 2 of 2): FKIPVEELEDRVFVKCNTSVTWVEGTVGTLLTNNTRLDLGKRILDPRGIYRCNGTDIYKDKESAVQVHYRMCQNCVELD
Experiment: SPR (Biacore), Fab over immobilized CD3εδ Fc, pH 6.0
pKd: −log10 of the molar value.

Binder: Antibody No. A005 (ADI-26921) Fab (Fab, V domains shown, Fab by papain digestion of the IgG1) VH: QVQLVQSGAEVKKPGASVKVSCKASGFNIKDYYMHWVRQAPGQRLEWMGWIDLEEGNTIYDAKFQGRVTITRDTSASTAYMELSSLRSEDTAVYYCARDAYGRYFYDVWGQGTLVTVSS VL: DIVMTQSPDSLAVSLGERATINCKSSQSLLNARTGKNYLAWYQQKPGQPPKLLIYWASTRESGVPDRFSGSGSGTDFTLTISSLQAEDVAVYYCKQSYSLRTFGGGTKVEIK
pKd: 7.62

Binder: Antibody No. V016 (ADI-76359) Fab (Fab, V domains shown, Fab by papain digestion of the IgG1) VH: QVQLVQSGAEVKKPGASVKVSCKASGFDIKDYYMHWVRQAPGQRLEWMGWIDLENANTIYDAKFQGRVTITRDTSASTAYMELSSLRSEDTAVYYCGRDAYGRYFYDVWGQGTLVTVSS VL: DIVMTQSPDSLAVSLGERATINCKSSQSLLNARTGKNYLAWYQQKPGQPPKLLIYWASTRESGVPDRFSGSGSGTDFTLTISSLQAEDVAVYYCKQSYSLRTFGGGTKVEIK
pKd: 7.64

Binder: Antibody No. V018 (ADI-76361) Fab (Fab, V domains shown, Fab by papain digestion of the IgG1) VH: QVQLVQSGAEVKKPGASVKVSCKASGFDIKDYYMHWVRQAPGQRLEWMGWIDLEEGNTIYDAKFQGRVTITRDTSASTAYMELSSLRSEDTAVYYCARDAYGRYFYDVWGQGTLVTVSS VL: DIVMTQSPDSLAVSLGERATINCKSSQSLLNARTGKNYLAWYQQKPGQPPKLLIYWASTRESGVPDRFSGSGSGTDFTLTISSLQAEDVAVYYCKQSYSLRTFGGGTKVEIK
pKd: 7.54
